Taken from patent US20250163162A1.

# TARGET ENTITY: T1, IL10Rα/IL2Rγ receptor (human, UniProt Q13651 22-578; P31785 23-369)
# T1 sequence (looked up) 1: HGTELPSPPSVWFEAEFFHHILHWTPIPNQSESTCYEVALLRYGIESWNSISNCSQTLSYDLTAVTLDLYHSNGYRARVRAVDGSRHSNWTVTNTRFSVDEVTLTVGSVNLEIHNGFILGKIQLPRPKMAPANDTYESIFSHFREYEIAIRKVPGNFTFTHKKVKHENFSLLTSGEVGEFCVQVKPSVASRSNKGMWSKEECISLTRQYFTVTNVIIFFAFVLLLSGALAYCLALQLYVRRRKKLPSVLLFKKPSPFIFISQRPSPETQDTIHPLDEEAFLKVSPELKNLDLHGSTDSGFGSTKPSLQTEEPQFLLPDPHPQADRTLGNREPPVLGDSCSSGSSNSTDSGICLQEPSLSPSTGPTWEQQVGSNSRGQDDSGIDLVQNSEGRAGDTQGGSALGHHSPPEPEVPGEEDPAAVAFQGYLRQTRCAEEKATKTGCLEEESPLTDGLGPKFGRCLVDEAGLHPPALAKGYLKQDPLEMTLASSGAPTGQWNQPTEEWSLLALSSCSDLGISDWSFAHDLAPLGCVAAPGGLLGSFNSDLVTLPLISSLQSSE
# T1 sequence (looked up) 2: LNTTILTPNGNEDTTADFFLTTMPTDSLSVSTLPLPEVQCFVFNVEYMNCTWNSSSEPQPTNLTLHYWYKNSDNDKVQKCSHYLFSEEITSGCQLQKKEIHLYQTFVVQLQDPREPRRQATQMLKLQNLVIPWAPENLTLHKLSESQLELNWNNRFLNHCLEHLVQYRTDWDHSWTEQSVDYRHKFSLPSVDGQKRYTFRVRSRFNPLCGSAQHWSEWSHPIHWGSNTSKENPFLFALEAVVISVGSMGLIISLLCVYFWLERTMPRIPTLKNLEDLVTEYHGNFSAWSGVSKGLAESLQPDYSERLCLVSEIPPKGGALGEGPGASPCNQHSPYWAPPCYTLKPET
# ASSAY PROTOCOL: cell-based or functional assay
MEASURE: pSTAT3 MFI, CD4 T cells, 0.1 nM (unstimulated 1887) (MFI)

[
  {
    "BINDER": "DR471(DR241-DR231) (bispecific antibody) QVQLQESGGGSVQAGGSLRLSCAASGYSNCSYDMTWYRQAPGKEREFVSAIHSDGSTRYADSVKGRFFISQDNAKNTVYLQMNSLKPEDTAMYYCKTDPLHCRAHGGSWYSVRANYWGQGTQVTVSSGGGSQVQLQESGGGSVQAGGSLRLSCTASGFTFDDREMNWYRQAPGNECELVSTISSDGSTYYADSVKGRFTISQDNAKNTVYLQMDSVKPEDTAVYYCAADFMIAIQAPGAGCWGQGTQVTVSSASHHHHHH",
    "RESULT": 2250
  }
]
